Assay: Solubility of compound in 0.5 % DMSO in water by HPLC-MS analysis
Format: physicochemical
MEASUREMENT_NAME: solubility (µM)

C[C@H]1[C@H](C)CC[C@]2(C(=O)O)CC[C@]3(C)C(=CC[C@@H]4[C@@]5(C)CC(Br)C(=O)C(C)(C)[C@@H]5CC[C@]43C)[C@H]12 (stereo partly drawn) has a reported solubility of 24

"CC1(C)CC[C@]2(C(=O)O)CC[C@]3(C)C(=CC[C@@H]4[C@@]5(C)Cc6sc(N)nc6C(C)(C)[C@@H]5CC[C@]43C)[C@@H]2C1" has a reported solubility of 27

"C=C(C)[C@@H]1CC[C@]2(C(=O)O)CC[C@]3(C)[C@H](CC[C@@H]4[C@@]5(C)Cc6sc(N)nc6C(C)(C)[C@@H]5CC[C@]43C)[C@@H]12" has a reported solubility of 26

---

Test: Chemical stability of compound in PBS buffer assessed as parent compound remaining at 2 uM at pH 7.4 and 37 degC incubated for 15 mins by RF-MS analysis
Type: physicochemical
Conditions: read-out: Stability
MEASUREMENT_NAME: remaining at 0.25 h, 2 µM (%)

C[C@H]1[C@H](C)CC[C@]2(C(=O)O)CC[C@]3(C)C(=CC[C@@H]4[C@@]5(C)CC(SC#N)C(=O)C(C)(C)[C@@H]5CC[C@]43C)[C@H]12 (some centres not stated) has a reported remaining at 0.25 h, 2 µM of 90.3

"CC1(C)CC[C@]2(C(=O)O)CC[C@]3(C)C(=CC[C@@H]4[C@@]5(C)Cc6sc(N)nc6C(C)(C)[C@@H]5CC[C@]43C)[C@@H]2C1" has a reported remaining at 0.25 h, 2 µM of 91.2

"CC(C)[C@@H]1CC[C@]2(C(=O)O)CC[C@]3(C)[C@H](CC[C@@H]4[C@@]5(C)Cc6sc(N)nc6C(C)(C)[C@@H]5CC[C@]43C)[C@@H]12" has a reported remaining at 0.25 h, 2 µM of 99.3

C[C@H]1[C@H](C)CC[C@]2(C(=O)O)CC[C@]3(C)C(=CC[C@@H]4[C@@]5(C)CC(Br)C(=O)C(C)(C)[C@@H]5CC[C@]43C)[C@H]12 (some centres not stated) has a reported remaining at 0.25 h, 2 µM of 99.6

CC(C)[C@@H]1CC[C@]2(C(=O)O)CC[C@]3(C)[C@H](CC[C@@H]4[C@@]5(C)CC(SC#N)C(=O)C(C)(C)[C@@H]5CC[C@]43C)[C@@H]12 (some centres not stated) has a reported remaining at 0.25 h, 2 µM of 99.5

C=C(C)[C@@H]1CC[C@]2(C(=O)O)CC[C@]3(C)[C@H](CC[C@@H]4[C@@]5(C)CC(SC#N)C(=O)C(C)(C)[C@@H]5CC[C@]43C)[C@@H]12 (some centres not stated) has a reported remaining at 0.25 h, 2 µM of 99.9

"C=C(C)[C@@H]1CC[C@]2(C(=O)O)CC[C@]3(C)[C@H](CC[C@@H]4[C@@]5(C)Cc6sc(N)nc6C(C)(C)[C@@H]5CC[C@]43C)[C@@H]12" has a reported remaining at 0.25 h, 2 µM of 99.5

---

Experiment: Stability in human plasma assessed as parent compound remaining at 2 uM incubated for 120 mins by RF-MS analysis
Format: ADME, cell-free
Settings: read-out: Stability
MEASUREMENT_NAME: remaining at 2 h, 2 µM (%)

Check out these entries, answers already filled in.
"CC1(C)CC[C@]2(C(=O)O)CC[C@]3(C)C(=CC[C@@H]4[C@@]5(C)Cc6sc(N)nc6C(C)(C)[C@@H]5CC[C@]43C)[C@@H]2C1" has a reported remaining at 2 h, 2 µM of 99.1

"C=C(C)[C@@H]1CC[C@]2(C(=O)O)CC[C@]3(C)[C@H](CC[C@@H]4[C@@]5(C)Cc6sc(N)nc6C(C)(C)[C@@H]5CC[C@]43C)[C@@H]12" has a reported remaining at 2 h, 2 µM of 97.7

C[C@H]1[C@H](C)CC[C@]2(C(=O)O)CC[C@]3(C)C(=CC[C@@H]4[C@@]5(C)CC(Br)C(=O)C(C)(C)[C@@H]5CC[C@]43C)[C@H]12 (some centres not stated) has a reported remaining at 2 h, 2 µM of 85.5

P. CC(C)[C@@H]1CC[C@]2(C(=O)O)CC[C@]3(C)[C@H](CC[C@@H]4[C@@]5(C)Cc6sc(N)nc6C(C)(C)[C@@H]5CC[C@]43C)[C@@H]12
Q. C=C(C)[C@@H]1CC[C@]2(C(=O)O)CC[C@]3(C)[C@H](CC[C@@H]4[C@@]5(C)CC(SC#N)C(=O)C(C)(C)[C@@H]5CC[C@]43C)[C@@H]12 (some centres not stated)
R. CC(C)[C@@H]1CC[C@]2(C(=O)O)CC[C@]3(C)[C@H](CC[C@@H]4[C@@]5(C)CC(SC#N)C(=O)C(C)(C)[C@@H]5CC[C@]43C)[C@@H]12 (some centres not stated)
S. C[C@H]1[C@H](C)CC[C@]2(C(=O)O)CC[C@]3(C)C(=CC[C@@H]4[C@@]5(C)CC(SC#N)C(=O)C(C)(C)[C@@H]5CC[C@]43C)[C@H]12 (some centres not stated)
Put the compounds in ascending order of remaining at 2 h, 2 µM. Provide your answer as the labels ordered per the instruction.
Q, R, S, P

Values were extracted from ChEMBL document CHEMBL4312011.
